- target_of_assay: Cdc2 (Homo sapiens, UniProt P06493)
- Sequence (P06493 whole entry): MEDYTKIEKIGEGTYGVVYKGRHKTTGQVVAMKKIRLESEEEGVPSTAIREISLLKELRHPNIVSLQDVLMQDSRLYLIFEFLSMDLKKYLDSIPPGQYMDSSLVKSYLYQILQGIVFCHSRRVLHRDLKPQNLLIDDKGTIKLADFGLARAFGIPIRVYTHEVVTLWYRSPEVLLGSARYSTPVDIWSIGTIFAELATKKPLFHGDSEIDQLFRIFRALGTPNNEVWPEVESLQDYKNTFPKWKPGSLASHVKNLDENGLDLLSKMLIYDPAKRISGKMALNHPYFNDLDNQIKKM
- procedure_details: Co-immunoprecipitation of HA-tagged GADD45 constructs with Cdc2 antibody in HCT116 cells
- Format: cell-based
- Design: HCT116 cells were transiently transfected with HA-tagged GADD45 mutant expression vectors; endogenous in cells; host or cells: HCT116 (colon carcinoma); only the GADD45 constructs were transfected
- recorded_conditions: transfected HCT116 cells
readout_name: binding to Cdc2 (co-immunoprecipitation)

GADD45β: GADD45 family member, HA-tagged expression vector (protein, left off: small tags and cut ends, GADD45 family member, HA-tagged expression vector) MTLEELVACDNAAQKMQTVTAAVEELLVAAQRQDRLTVGVYESAKLMNVDPDSVVLCLLAIDEEEEDDIALQIHFTLIQSFCCDNDINIVRVSGMQRLAQLLGEPAETQGTTEARDLHCLLVTNPHTDAWKSHGLVEVASYCEESRGNNQWVPYISLQER	able to bind
GADD45γ: GADD45 family member, HA-tagged expression vector (protein, left off: small tags and cut ends, GADD45 family member, HA-tagged expression vector) MTLEEVRGQDTVPESTARMQGAGKALHELLLSAQRQGCLTAGVYESAKVLNVDPDNVTFCVLAAGEEDEGDIALQIHFTLIQAFCCENDIDIVRVGDVQRLAAIVGAGEEAGAPGDLHCILISNPNEDAWKDPALEKLSLFCEESRSVNDWVPSITLPE	able to bind
